Listing: Functional assay IL-8 of selected binders
- TARGET_OR_TEST_SYSTEM: T1, CD134 expressed on the cell surface of HT1080_OX40 cells (human, UniProt P43489 29-277); note: test concentration or dose not given here
- T1 sequence (looked up): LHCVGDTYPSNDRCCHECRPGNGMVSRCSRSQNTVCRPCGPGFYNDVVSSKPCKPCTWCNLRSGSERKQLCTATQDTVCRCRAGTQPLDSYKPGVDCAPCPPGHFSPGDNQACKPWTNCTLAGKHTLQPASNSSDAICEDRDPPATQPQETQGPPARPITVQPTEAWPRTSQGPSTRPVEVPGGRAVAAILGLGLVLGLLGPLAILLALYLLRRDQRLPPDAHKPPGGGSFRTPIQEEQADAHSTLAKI
- PROTOCOL_DESCRIPTION: cell-based or functional assay

BINDER	Functional assay IL-8 [abs. corr.]
P018.S.12.A.D05 (antibody, V domains shown, V regions on human Ig constant parts; also called AB134_70) VH: QEQLKESGGGVVTPGGTLTLTCTASAFSLNHYNIQWVRQAPGKGLEWIGWILTDGTEYYANWAKGRFTISKTSTTVDLKIASPTTEDTATYFCAREGDWGVDSLWGPGTLVTVSS VL: ALVMTQTPSPVSAAVGGTVTISCQSSQSVDNNDFLSWYQQKPGQPPKLLIYLASKLASGVPSRFSGSGSGTQFTLTISGVQSDDAATYYCKGLYFDSGWYAAFGGGTEVVVE	-0.007
P018.S.11.A.G03 (antibody, V domains shown, V regions on human Ig constant parts; also called AB134_43) VH: QSLEESGGRLVTPGTPLTLTCTASGFSLTNYAMNWVRQAPGKGLEWIGFINYDGNTYYANWAKGRFTISRTSTTVDLKITSPTTEDTATYFCARGGDGYTHIPDTFDPWGPGTLVTVSS VL: AFEMTQTPSSVSVAVGGTVTIKCQASQSIYSYLSWYQQKPGQPPKLLIYYASTLASGVPSRFVGSGSGTQFTLTISGVESADAATYYCQQGYSYSNIDNVFGGGTEMVVK	1.57
P018.S.11.A.F03 (antibody, V domains shown, V regions on human Ig constant parts; also called AB134_39) VH: QEQLVESGGGLVQPEGSLTLTCKASGFDFNNNAMCWVRQAPGKGLEWIACIYDGSSGSTYYASWAKGRFTISKTSSSTVTLQMTSLTAADTATYFCARAYAAYTVYDYAFNLWGPGTLVTVSS VL: DVVMTQTPASVSEPVGGTVTIKCQASQSIGSDLAWYQQKPGQPPKLLIYYTTNLETGVSSRFKGSGSGTQFTLTISDLESADAATYYCQYADRSSYSFGGGTEVVVK	0.38

The measurements presented in this section are drawn from patent US20210253725A1.
